# target or test system: Mouse Octn2 (Mus musculus)
# Sequence (Q9Z0E8 whole entry): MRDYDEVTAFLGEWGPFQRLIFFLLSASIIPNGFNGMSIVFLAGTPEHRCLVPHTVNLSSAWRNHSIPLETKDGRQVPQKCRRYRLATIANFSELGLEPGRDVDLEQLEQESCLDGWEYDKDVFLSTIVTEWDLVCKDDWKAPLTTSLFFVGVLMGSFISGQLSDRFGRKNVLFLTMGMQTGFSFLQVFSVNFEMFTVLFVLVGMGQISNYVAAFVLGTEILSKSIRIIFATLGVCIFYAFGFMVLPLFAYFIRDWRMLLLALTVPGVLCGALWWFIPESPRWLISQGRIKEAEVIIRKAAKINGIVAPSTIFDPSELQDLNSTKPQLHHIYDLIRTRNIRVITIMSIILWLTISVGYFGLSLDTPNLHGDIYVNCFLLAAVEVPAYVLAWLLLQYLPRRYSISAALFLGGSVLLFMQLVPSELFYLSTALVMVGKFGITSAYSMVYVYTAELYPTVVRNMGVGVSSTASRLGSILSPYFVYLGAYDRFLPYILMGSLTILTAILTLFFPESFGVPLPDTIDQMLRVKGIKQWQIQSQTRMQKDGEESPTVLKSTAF
# procedure summary: Uptake of [3H]carnitine by Octn2-expressing HEK293 cells
# test context: [3H]carnitine 1.0 μM, 15 sec, mock subtracted, read-out: IC 50 for carnitine uptake, Expression Model
measured property: pIC50
// field semantics: pIC50 = negative decimal log of concentration (mol/L)

For COc1ccc(CCN(C)CCCC(C#N)(c2ccc(OC)c(OC)c2)C(C)C)cc1OC (stereo not shown) on Mouse Octn2 (Mus musculus), measured pIC50 was 4.03

---

# target or test system: Octn2 (Mus musculus)
# Sequence (Q9Z0E8 whole entry): as above
# procedure summary: Uptake of [3H]carnitine by mice kidney slices
measured property: pIC50
// field semantics: pIC50 = negative decimal log of concentration (mol/L)

Item: COc1ccc(CCN(C)CCCC(C#N)(c2ccc(OC)c(OC)c2)C(C)C)cc1OC (stereo not shown) | pIC50: 3.44

Hey, just so you know, these numbers are from paper PMC5634478.
